- system.tested: c-MET (Homo sapiens, UniProt P08581)
- Sequence (P08581 25-1390): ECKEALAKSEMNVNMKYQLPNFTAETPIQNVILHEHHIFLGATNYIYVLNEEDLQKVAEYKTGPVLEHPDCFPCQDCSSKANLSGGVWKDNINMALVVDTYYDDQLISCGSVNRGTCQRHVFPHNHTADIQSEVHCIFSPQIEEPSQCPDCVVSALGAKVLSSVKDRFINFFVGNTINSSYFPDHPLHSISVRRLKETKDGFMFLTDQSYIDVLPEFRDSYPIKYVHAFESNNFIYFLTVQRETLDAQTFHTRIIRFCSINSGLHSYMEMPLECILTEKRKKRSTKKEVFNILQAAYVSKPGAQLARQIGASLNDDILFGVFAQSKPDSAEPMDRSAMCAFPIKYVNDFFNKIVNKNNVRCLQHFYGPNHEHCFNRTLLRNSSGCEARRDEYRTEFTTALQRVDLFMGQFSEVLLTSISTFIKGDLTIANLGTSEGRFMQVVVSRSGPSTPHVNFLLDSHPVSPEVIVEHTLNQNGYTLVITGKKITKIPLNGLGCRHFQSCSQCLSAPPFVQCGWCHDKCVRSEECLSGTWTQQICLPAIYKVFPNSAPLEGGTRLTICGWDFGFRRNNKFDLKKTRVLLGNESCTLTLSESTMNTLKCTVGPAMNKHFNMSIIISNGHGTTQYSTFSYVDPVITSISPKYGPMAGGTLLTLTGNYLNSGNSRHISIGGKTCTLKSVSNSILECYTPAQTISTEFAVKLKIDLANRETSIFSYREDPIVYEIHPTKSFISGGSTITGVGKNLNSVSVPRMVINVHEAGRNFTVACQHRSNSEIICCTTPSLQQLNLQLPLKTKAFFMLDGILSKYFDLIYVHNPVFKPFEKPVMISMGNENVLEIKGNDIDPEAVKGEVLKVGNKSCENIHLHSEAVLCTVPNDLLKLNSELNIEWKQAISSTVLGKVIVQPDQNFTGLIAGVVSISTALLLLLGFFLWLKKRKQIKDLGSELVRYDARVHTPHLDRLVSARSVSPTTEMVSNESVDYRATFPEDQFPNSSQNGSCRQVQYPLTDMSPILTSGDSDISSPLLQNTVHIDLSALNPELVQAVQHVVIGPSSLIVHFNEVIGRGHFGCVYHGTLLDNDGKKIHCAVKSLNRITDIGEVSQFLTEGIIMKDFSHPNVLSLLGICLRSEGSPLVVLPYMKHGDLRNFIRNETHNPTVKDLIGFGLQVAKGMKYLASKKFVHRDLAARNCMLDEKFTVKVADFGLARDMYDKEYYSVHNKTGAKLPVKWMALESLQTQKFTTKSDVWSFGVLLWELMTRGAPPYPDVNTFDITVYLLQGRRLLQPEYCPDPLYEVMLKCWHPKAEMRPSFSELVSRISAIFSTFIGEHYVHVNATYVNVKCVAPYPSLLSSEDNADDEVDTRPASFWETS
- procedure.details: HTRF kinase inhibitory assay, c-MET
- Format: biochemical
- test.context: read-out: c-MET Inhibition (1μM)
# inhibition at 1 µM per record follows

smiles.record | system.tested | endpoint.unit | inhibition at 1 µM
CCCn1cc(-c2cnc(N)c(O[C@H](C)c3ccccc3-c3ccnn3C)c2)cn1 | c-MET (Homo sapiens, UniProt P08581) | % | 26
CCn1cc(-c2cnc(N)c(O[C@H](C)c3ccccc3)c2)cn1 | c-MET (Homo sapiens, UniProt P08581) | % | 14
C[C@@H](Oc1cc(-c2cccn2C)cnc1N)c1ccccc1-c1ccnn1C | c-MET (Homo sapiens, UniProt P08581) | % | 0
CCn1cc(-c2cnc(N)c(O[C@H](C)c3ccccc3-c3ccccc3)c2)cn1 | c-MET (Homo sapiens, UniProt P08581) | % | 50
CCCn1cc(-c2cnc(N)c(O[C@H](C)c3ccccc3)c2)cn1 | c-MET (Homo sapiens, UniProt P08581) | % | 5

###

# inhibition at 1 µM per record follows
- system.tested: ROS1 (Homo sapiens)
- Sequence (P08922 28-2347): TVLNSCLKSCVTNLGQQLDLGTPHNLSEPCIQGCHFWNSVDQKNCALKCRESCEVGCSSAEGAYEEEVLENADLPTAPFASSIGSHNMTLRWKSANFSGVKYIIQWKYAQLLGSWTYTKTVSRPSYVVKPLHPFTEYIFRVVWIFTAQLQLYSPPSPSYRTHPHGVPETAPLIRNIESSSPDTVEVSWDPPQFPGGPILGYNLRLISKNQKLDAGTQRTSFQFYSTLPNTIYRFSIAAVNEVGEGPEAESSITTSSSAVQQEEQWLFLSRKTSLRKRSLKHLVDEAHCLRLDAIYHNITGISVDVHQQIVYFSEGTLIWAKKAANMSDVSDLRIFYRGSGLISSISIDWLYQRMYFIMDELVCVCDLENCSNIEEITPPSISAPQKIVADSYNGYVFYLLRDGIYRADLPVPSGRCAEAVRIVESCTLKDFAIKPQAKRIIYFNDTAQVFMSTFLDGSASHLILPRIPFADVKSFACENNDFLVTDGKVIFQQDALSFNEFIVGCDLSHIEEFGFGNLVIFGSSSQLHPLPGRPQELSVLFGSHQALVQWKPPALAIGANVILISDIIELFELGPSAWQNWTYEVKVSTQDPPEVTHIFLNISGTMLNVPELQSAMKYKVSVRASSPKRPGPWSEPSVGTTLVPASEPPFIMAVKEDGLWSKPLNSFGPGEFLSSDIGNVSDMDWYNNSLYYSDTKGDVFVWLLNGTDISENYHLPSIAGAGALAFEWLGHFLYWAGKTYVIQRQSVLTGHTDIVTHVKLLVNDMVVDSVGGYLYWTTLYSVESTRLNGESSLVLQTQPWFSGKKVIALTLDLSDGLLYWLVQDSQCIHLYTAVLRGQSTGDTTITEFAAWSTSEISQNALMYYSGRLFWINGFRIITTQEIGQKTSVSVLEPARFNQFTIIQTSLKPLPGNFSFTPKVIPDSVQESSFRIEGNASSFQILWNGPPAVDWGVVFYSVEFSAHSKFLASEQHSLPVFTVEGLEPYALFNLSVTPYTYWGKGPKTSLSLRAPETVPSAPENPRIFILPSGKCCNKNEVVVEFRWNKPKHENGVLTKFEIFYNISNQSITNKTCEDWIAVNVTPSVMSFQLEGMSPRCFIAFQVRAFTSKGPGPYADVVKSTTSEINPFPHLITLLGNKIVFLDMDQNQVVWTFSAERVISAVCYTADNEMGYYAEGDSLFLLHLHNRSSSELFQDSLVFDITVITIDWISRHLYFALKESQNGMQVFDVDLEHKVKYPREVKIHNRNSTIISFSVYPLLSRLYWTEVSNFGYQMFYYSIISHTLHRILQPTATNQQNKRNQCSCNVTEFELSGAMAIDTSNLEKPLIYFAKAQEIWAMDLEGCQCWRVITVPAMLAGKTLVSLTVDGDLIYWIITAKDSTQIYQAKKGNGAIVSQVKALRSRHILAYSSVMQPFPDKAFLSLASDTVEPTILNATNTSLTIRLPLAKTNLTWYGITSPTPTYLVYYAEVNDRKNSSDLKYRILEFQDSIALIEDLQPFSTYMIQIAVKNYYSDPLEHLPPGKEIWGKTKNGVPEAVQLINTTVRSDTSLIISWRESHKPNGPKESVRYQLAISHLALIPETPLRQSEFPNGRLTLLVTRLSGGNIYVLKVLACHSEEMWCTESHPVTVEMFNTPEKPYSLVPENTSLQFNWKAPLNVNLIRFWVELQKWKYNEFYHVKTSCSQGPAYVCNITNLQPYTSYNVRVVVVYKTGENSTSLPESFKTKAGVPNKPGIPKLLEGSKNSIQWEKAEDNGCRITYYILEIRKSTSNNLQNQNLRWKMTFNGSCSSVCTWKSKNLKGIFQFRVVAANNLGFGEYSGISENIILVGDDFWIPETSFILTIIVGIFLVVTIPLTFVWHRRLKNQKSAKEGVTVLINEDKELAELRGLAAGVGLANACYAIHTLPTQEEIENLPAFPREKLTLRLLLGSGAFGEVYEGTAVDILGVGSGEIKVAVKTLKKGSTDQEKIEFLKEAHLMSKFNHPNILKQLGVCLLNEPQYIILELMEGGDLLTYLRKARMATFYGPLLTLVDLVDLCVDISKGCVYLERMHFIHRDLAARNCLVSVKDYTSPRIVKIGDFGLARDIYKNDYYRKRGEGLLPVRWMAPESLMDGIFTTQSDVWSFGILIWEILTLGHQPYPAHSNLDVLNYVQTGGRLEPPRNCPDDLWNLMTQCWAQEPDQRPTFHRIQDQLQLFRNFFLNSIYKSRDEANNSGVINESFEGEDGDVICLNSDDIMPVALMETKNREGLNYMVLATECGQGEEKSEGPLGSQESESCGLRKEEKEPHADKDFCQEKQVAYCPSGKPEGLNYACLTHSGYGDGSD
- procedure.details: HTRF KinEASE-TK kinase inhibitory assay, ROS1
- Format: biochemical
- test.context: read-out: ROS1 Inhibition (1μM)
measure: inhibition at 1 µM (%)

smiles.record | observed
C[C@@H](Oc1cc(-c2ccnn2C)cnc1N)c1ccccc1 | 101
C[C@@H](Oc1cc(-c2cccn2C)cnc1N)c1ccccc1F | 43
C[C@@H](Oc1cc(-c2cccn2C)cnc1N)c1ccccc1-c1ccnn1C | 81
CCn1cc(-c2cnc(N)c(O[C@H](C)c3ccccc3F)c2)cn1 | 87
CCCn1cc(-c2cnc(N)c(O[C@H](C)c3ccccc3-c3ccccc3)c2)cn1 | 98
CCn1cc(-c2cnc(N)c(O[C@H](C)c3ccccc3)c2)cn1 | 85

###

# inhibition at 1 µM per record follows
- system.tested: ALK^WT (Homo sapiens, UniProt Q9UM73)
- procedure.details: HTRF KinEASE-TK kinase inhibitory assay, ALK wild type
- Format: biochemical
- test.context: read-out: ALK Inhibition (1μM)

smiles.record | inhibition at 1 µM
C[C@@H](Oc1cc(-c2cccn2C)cnc1N)c1ccccc1-c1ccnn1C | 30%
C[C@@H](Oc1cc(-c2ccnn2C)cnc1N)c1ccccc1-c1ccnn1C | 30%
C[C@@H](Oc1cc(-c2cccn2C)cnc1N)c1ccccc1F | 18%
CCCn1cc(-c2cnc(N)c(O[C@H](C)c3ccccc3F)c2)cn1 | 58%
C[C@@H](Oc1cc(-c2ccnn2C)cnc1N)c1ccccc1 | 90%
C[C@@H](Oc1cc(-c2cnn(C)c2)cnc1N)c1ccccc1-c1ccnn1C | 88%
CCCn1cc(-c2cnc(N)c(O[C@H](C)c3ccccc3-c3ccccc3)c2)cn1 | 82%

###

- System: NCI-H3122 cell line harbouring EML4-ALK fusion
- procedure.details: Antiproliferative MTT assay, NCI-H3122
- Assay type: cell-based, human
- test.context: Homo sapiens, NCI-H3122, 72 h, read-out: Cellular IC50 (μM) NCI-H3122
measure: IC50 (µM)

compound | observed
C[C@@H](Oc1cc(-c2ccnn2C)cnc1N)c1ccccc1-c1ccnn1C [B02] | 689
CCn1cc(-c2cnc(N)c(O[C@H](C)c3ccccc3-c3ccccc3)c2)cn1 [B09] | 8.5
C[C@@H](Oc1cc(-c2ccnn2C)cnc1N)c1ccccc1-c1ccccc1 [B07] | 14.3
CCn1cc(-c2cnc(N)c(O[C@H](C)c3ccccc3-c3ccnn3C)c2)cn1 [B04] | 128
